Molecular target: T1, Human CD47-C33G (human, UniProt Q08722 19-135)
T1 construct: also called CD47 mutein with C33G mutation
T1 sequence (Q08722 19-135 C33G limits assumed): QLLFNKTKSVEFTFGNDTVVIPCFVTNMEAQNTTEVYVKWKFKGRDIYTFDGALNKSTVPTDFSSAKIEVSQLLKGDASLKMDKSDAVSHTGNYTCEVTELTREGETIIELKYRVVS
Experiment: SPR, IgG captured, CD47 in flow; exp 4;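 note: biacore T200 SPR using IgG from transfected HEK293 supernatants against wild-type human CD47 or its C33G mutein, rates fitted to association and dissociation curves, KD estimated from them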
Please mark MET if the recorded kon is equal to or greater than 300000 M⁻¹ s⁻¹, and NOT MET if it falls below.

{"binder": "108VH5.M27 / 108VL1.M5 (antibody, human IgG4 S228P, kappa, V domains shown, Full-length IgG4 (S228P), kappa; also called VH5.M27 VL1.M5) VH: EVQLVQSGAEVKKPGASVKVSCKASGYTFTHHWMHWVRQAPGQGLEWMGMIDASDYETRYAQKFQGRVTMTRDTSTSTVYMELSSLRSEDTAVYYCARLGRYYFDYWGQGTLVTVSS VL: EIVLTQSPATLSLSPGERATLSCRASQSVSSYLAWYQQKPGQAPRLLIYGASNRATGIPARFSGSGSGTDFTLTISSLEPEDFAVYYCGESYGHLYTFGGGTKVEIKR", "classification": "NOT MET"}
{"binder": "108VH5.M21 / 108VL1.M5 (antibody, human IgG4 S228P, kappa, V domains shown, Full-length IgG4 (S228P), kappa; also called VH5.M21 VL1.M5) VH: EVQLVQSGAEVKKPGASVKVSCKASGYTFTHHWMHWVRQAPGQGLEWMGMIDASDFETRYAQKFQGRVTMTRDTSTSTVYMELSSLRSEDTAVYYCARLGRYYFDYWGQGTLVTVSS VL: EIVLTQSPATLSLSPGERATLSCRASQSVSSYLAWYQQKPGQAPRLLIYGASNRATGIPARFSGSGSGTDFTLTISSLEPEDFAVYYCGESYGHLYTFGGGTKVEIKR", "classification": "NOT MET"}
{"binder": "chimeric antibody 108C10A6 (antibody, V domains shown, Chimeric antibody with mouse variable domains; captured through human Fc; also called VH / VL) VH: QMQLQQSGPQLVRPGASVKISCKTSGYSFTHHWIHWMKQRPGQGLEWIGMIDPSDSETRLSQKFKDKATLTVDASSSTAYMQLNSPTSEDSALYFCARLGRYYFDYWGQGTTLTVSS VL: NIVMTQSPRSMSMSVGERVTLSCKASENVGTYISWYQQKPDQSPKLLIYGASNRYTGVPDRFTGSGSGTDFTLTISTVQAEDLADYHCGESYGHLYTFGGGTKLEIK", "classification": "MET"}
{"binder": "108VH5.M24 / 108VL1.M5 (antibody, human IgG4 S228P, kappa, V domains shown, Full-length IgG4 (S228P), kappa; also called VH5.M24 VL1.M5) VH: EVQLVQSGAEVKKPGASVKVSCKASGYTFTHHWMHWVRQAPGQGLEWMGMIDASDLETRYAQKFQGRVTMTRDTSTSTVYMELSSLRSEDTAVYYCARLGRYYFDYWGQGTLVTVSS VL: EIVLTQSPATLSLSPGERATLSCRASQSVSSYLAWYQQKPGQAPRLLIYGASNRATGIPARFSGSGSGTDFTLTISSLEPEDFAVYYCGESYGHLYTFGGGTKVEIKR", "classification": "NOT MET"}
{"binder": "108VH5.M25 / 108VL1.M5 (antibody, human IgG4 S228P, kappa, V domains shown, Full-length IgG4 (S228P), kappa; also called VH5.M25 VL1.M5) VH: EVQLVQSGAEVKKPGASVKVSCKASGYTFTHHWMHWVRQAPGQGLEWMGMIDASDRETRYAQKFQGRVTMTRDTSTSTVYMELSSLRSEDTAVYYCARLGRYYFDYWGQGTLVTVSS VL: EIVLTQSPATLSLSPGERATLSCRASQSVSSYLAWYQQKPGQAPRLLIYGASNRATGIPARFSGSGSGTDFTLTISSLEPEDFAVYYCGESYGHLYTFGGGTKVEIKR", "classification": "NOT MET"}
{"binder": "108VH4.M4-VL1.M1 (antibody, V domains shown, also called original humanized 108C10A6 antibody) VH: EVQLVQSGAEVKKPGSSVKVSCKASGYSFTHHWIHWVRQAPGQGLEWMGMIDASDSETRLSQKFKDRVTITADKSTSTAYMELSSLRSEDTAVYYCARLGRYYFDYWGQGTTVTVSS VL: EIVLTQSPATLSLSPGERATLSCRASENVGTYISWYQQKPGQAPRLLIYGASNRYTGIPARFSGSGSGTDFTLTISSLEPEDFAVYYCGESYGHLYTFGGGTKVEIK", "classification": "MET"}
{"binder": "108VH5.M20 / 108VL1.M5 (antibody, human IgG4 S228P, kappa, V domains shown, Full-length IgG4 (S228P), kappa; also called VH5.M20 VL1.M5) VH: EVQLVQSGAEVKKPGASVKVSCKASGYTFTHHWMHWVRQAPGQGLEWMGMIDASDAETRYAQKFQGRVTMTRDTSTSTVYMELSSLRSEDTAVYYCARLGRYYFDYWGQGTLVTVSS VL: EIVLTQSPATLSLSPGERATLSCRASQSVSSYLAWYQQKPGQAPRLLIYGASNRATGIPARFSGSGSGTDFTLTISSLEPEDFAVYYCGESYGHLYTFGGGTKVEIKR", "classification": "MET"}
{"binder": "108VH5.M23 / 108VL1.M5 (antibody, human IgG4 S228P, kappa, V domains shown, Full-length IgG4 (S228P), kappa; also called VH5.M23 VL1.M5) VH: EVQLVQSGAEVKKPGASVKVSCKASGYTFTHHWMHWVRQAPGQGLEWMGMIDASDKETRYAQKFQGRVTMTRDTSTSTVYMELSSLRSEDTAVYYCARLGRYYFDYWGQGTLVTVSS VL: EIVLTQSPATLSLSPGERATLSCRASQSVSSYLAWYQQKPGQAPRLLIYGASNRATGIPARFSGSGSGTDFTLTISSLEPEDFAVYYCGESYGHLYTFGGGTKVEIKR", "classification": "NOT MET"}
